TARGET_OR_TEST_SYSTEM: human DLL3 protein expressed on CHO-K1 recombinant cells (human DLL3 extracellular segment fused to EpCAM transmembrane and intracellular regions) (human) (UniProt Q9NYJ7)
Sequence (Q9NYJ7 other isoform, or with tags, fused parts or gaps limits assumed): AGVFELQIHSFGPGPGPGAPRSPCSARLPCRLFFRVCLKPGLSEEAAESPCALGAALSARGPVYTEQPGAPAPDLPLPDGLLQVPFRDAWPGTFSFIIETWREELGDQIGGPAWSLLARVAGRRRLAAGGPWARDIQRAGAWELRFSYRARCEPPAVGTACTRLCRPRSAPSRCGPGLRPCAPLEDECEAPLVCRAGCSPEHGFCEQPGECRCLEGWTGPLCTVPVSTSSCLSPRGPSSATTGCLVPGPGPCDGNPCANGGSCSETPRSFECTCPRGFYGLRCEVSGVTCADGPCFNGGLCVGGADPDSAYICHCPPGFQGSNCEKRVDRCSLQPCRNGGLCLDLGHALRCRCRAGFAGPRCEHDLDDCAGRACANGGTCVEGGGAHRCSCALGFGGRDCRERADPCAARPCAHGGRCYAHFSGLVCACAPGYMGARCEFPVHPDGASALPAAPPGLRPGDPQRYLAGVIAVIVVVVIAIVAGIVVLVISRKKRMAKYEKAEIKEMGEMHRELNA
PROTOCOL_TEXT: FACS, CHO-K1 hDLL3 cells, 0.00128 nM antibody
PROPERTY_NAME: MFI (MFI)
Give the value in MFI but do not write MFI after it.

Dear colleague, I am looking for the recorded MFI of the following binder: Hab015VL5VH1b-hFc (scFv, part only; not given: VL-VH linker and human IgG1 Fc, V domains shown, not shown: another chain or arm of the molecule; a dimerising Fc or GST; small tags and cut ends) VL: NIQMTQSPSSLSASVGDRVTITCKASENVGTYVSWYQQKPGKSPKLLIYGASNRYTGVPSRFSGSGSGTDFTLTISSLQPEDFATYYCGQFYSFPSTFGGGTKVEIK VH: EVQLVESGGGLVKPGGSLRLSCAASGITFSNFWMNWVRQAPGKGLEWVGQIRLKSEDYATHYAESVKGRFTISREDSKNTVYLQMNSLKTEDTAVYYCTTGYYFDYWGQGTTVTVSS
137

// moving on: another record for MFI
Dear colleague, I am looking for the recorded MFI of the following binder: Hab015VL4VH5a-hFc (scFv, part only; not given: VL-VH linker and human IgG1 Fc, V domains shown, not shown: another chain or arm of the molecule; a dimerising Fc or GST; small tags and cut ends) VL: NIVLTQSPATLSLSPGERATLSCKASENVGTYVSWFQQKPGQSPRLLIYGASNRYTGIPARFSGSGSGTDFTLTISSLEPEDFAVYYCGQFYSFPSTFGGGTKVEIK VH: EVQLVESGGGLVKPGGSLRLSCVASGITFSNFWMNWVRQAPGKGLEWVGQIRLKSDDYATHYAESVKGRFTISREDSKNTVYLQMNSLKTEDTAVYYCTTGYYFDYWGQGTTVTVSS
122

Where do these numbers come from? They come from patent EP4786492A1.
